assay: label from the status in PepcDB records
property-measured: protein production

Here's what some known entries look like.
INSERT INTO results (residue_sequence, measured) VALUES
  ('LSQNTLAENIYNIIISDISRKWALKDISDSLYMSCSTLKRKLKQEHTSFSEVYLNARMNKATKLLRNSEYNITRVAYMCGYDSASYFTCVFKKHFKTTPSEFLAFLSSSRHQ', 'failed'),
  ('MTAIPRAPLILGLAGLIPFLWGALTYLSPAAQAWGAAALGPRFVGPYVQIAYGQIILAFMSGVLWGFATKADDRRAATGYVLAVLPALWAFFMTGGGPTGAAINLIFGFLGLLMLDAAFASWGLAPVWWMRLRLLLTAVVTICLAVGAFL', 'failed'),
  ('MANLKSLPVGDKAPEVVHMVIEVPRGSGNKYEYDPDLGAIKLDRVLPGAQFYPGDYGFIPSTLAEDGDPLDGLVLSTYPLLPGVVVEVRVVGLLLMEDEKGGDAKVIGVVAEDQRLDHIQDIGDVPEGVKQEIQHFFETYKALEAKKGKWVKVTGWRDRKAALEEVRACIARYKG', 'not failed'),
  ('MRNDLFNREKSRQLSLTPRTEKIEVKHVGKTDPGTVFVMNKNISTPYSCAMHLSEWYCSKSILALVDGQPWDMYKPLTKSCEIKFLTFKDPDPREVNKAYWRSCAMMLGCVIERAFKDDYVVSLLRAPEVPVIAGAFCYDVTLDKRLDEWMPTKENLRSFTKDAHALIYRDLPFETLDVDARVALEIFQHNKYKVDFIEEKASQNPERIVKLHRIGDFIDVSEGPLIPRTSVCFQYEVSAVHNLNPSQPNLIRRFQGLSLPTHLRAQFTIWDKLVGRSRKMVTEDEVRQTENTESTQ', 'failed');

The value of protein production measured for the sequence "LKYILETKLEEERNHLEELLEKVEEDYEGINYDEVLEALKLFKDNYELPKSKIKRKIRIFLIKENILFLNPQKGTLKPQSYLVWNAIKRML" turned out to be not failed

The value of protein production measured for the sequence "MLFEQIAANKRKTVFIILGFFIFVLMVGAAIGIIVWNNYLNGLILAAAIGAVYILIMVMSSSSVVMAMNHAKEVTSKEQAPVLWDTVESMAMVAGIPMPKVYIVEDPSPNAFATGISPEKGAVAVTRGLLNKLERYELEGVIAHEISHIRNYDIRLSTIAIALVAVIAILSDLAMRLIFWGSLTGGRNSRKSDNNNGGGAQIIIYVVALIFVILAPIIATAIQFALSRNREYLADASAVELTRNPDGLIQALQKISGDTKKMEEVSASSESIYFSSPLKSKKDKPGLFDSHPPISSRIERLENM" turned out to be failed

The value of protein production measured for the sequence "MSKIKWSNLWKGFAMGTTDLVPGVSGGTIALLLGIYDDFIRSISGLFSKRFWESLKFLLPIGIGMVVAIGLLSKLINYLLSTHTVPTMFFFVGLIGGIIPYLLKTSRFKHTFTTPHYLLLVVGIIVIVMMTVMNSGDKHAGETLSLSTGLILKYFIAGACASSAMLLPGISGSFMLLVFGVYGTIMYAISEFVSLNFAALPILITVGCGVLFGFLCSSKLIQYLLSYYTYLTYALIIGFVIGSLYAVFPGLPSTIMIWIVSIVTLLLGFVISYRLGRLTAD" turned out to be failed
